So I've got a bunch of variants here, and I need their protein stability index values.
B1: ZNF449 (parent)
chain: CTHCSKSFRQRAGLIMHQVTHFRG

variants of: B1; test: protein stability index of a GFP-peptide fusion (GPS, HEK-293T) (PSI 1-6); higher = more stable; conditions: c terminus: a fixed tail appended;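 further: lentivirally expressed fusions sorted by FACS into six bins by GFP to DsRed ratio, PSI derived from sequencing read proportions per bin multiplied by bin number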
# answer = number (no unit)

Just so you know, measured protein stability index for T20R came out at 2.14

Just so you know, measured protein stability index for H17E came out at 2.36

Just so you know, measured protein stability index for H21K came out at 2.28

Just so you know, measured protein stability index for A12H came out at 1.88

Just so you know, measured protein stability index for I15F came out at 2.4

Just so you know, measured protein stability index for F22P came out at 1.58

Just so you know, measured protein stability index for T20A came out at 2.04

Just so you know, measured protein stability index for I15S came out at 3.21

Just so you know, measured protein stability index for H17R came out at 1.82

Just so you know, measured protein stability index for H17N came out at 1.43

Just so you know, measured protein stability index for Q10R came out at 1.6

Just so you know, measured protein stability index for Q18K came out at 1.69

Just so you know, measured protein stability index for R9A came out at 2.58

Just so you know, measured protein stability index for H17P came out at 1.03

Just so you know, measured protein stability index for K6M came out at 1.88

Just so you know, measured protein stability index for T20M came out at 1.56

Just so you know, measured protein stability index for F22Y came out at 2.45

Just so you know, measured protein stability index for G13P came out at 1.23

Just so you know, measured protein stability index for A12D came out at 3.09

Just so you know, measured protein stability index for T2V came out at 1.98

Just so you know, measured protein stability index for C4K came out at 1.63

Just so you know, measured protein stability index for F8D came out at 1.54

Just so you know, measured protein stability index for V19D came out at 1.81

Just so you know, measured protein stability index for R23A came out at 2.97

Just so you know, measured protein stability index for R9Q came out at 2.63

Just so you know, measured protein stability index for M16F came out at 2.18

Just so you know, measured protein stability index for L14I came out at 1.3

Just so you know, measured protein stability index for F8E came out at 2.19

Just so you know, measured protein stability index for C1T came out at 1.5

Just so you know, measured protein stability index for F22V came out at 2.14

Just so you know, measured protein stability index for F22G came out at 2.61

Just so you know, measured protein stability index for T20V came out at 1.73

Just so you know, measured protein stability index for C1Q came out at 3.23

Just so you know, measured protein stability index for T2F came out at 1.45

Just so you know, measured protein stability index for H3Q came out at 1.45

Just so you know, measured protein stability index for C4Q came out at 1.98

Just so you know, measured protein stability index for V19F came out at 2.4

Just so you know, measured protein stability index for S7E came out at 2.29

Just so you know, measured protein stability index for C4P came out at 1.6

Just so you know, measured protein stability index for H17D came out at 2.46

Just so you know, measured protein stability index for T20H came out at 2.33

Just so you know, measured protein stability index for H3L came out at 2.08

Just so you know, measured protein stability index for R9H came out at 1.87

Just so you know, measured protein stability index for H17I came out at 2.52

Just so you know, measured protein stability index for M16W came out at 1.52

Just so you know, measured protein stability index for S5C came out at 2.1

Just so you know, measured protein stability index for H17W came out at 2.12

Just so you know, measured protein stability index for C1Y came out at 1.2

Just so you know, measured protein stability index for F22D came out at 2.37

Just so you know, measured protein stability index for Q18M came out at 1.69

Just so you know, measured protein stability index for S7C came out at 2.98

Just so you know, measured protein stability index for T2K came out at 2.25

Just so you know, measured protein stability index for S5G came out at 2.06

Just so you know, measured protein stability index for Q10W came out at 2.77

Just so you know, measured protein stability index for V19M came out at 2.12

Just so you know, measured protein stability index for I15A came out at 2.39

Just so you know, measured protein stability index for G13N came out at 2.69

Just so you know, measured protein stability index for T20Q came out at 1.83

Just so you know, measured protein stability index for C1M came out at 1.53

Just so you know, measured protein stability index for G24P came out at 3.29

Just so you know, measured protein stability index for T20C came out at 1.52

Just so you know, measured protein stability index for R11W came out at 1.94

Just so you know, measured protein stability index for R9I came out at 1.94

Just so you know, measured protein stability index for R11D came out at 1.58

Just so you know, measured protein stability index for Q10A came out at 2.51

Just so you know, measured protein stability index for S7F came out at 2.49

Just so you know, measured protein stability index for Q10C came out at 2.43

Just so you know, measured protein stability index for T20N came out at 2.44

Just so you know, measured protein stability index for L14W came out at 2.05

Just so you know, measured protein stability index for G13A came out at 2.47

Just so you know, measured protein stability index for R11G came out at 2.28

Just so you know, measured protein stability index for Q18W came out at 1.29
